- system: Cholinesterase (Equus caballus)
- protocol-summary: Inhibition of equine BChE at 100 uM using acetylthiocholine chloride as substrate preincubated for 15 mins followed by substrate addition and measured after 30 mins by DTNB reagent based Ellman's method relative to control
- condition-info: time 45.0 min
Listing: inhibition of selected molecules
Enter your answer as a number in %; do not include the unit.

CN1CCN(CCCOC(=O)c2cc3ccccc3o2)CC1: 31.7
CN1CCN(CCCOC(=O)c2ccc3ccccc3c2)CC1: 85.1
CN1CCN(CCCOC(=O)c2cccc3ccccc23)CC1: 50.6

Qu. Given the molecule "CN1CCN(CCOc2ccc3ccccc3c2)CC1" , write its reported inhibition.
Ans. 48.4

Qu. Give recorded inhibition. "O=C(NCCCN1CCN(c2ccncc2)CC1)c1cc2ccccc2o1"
Ans. 54.5

Qu. Indicate its recorded inhibition; the molecule in question is "O=C(OCCCN1CCN(c2ccccc2)CC1)c1ccc2ccccc2c1"
Ans. 16.6

====

Hi! I'm sharing some pIC50 results obtained with UniProtKB P81908.
Expect pIC50 as a plain number equal to -log10 of the molar concentration.

Qu. Please indicate recorded pIC50 of "O=C(NCCCN1CCN(c2ccncc2)CC1)c1cc2ccccc2o1" measured with UniProtKB P81908.
Ans. 4.07

Qu. Fill in: pIC50 on UniProtKB P81908, entry "CN1CCN(CCCOC(=O)c2ccc3ccccc3c2)CC1"
Ans. 4.36

Qu. Tell me pIC50 of "CN(C)C(=O)Oc1cccc([N+](C)(C)C)c1" when tested on UniProtKB P81908.
Ans. 6.80

Qu. Tell me its pIC50 on UniProtKB P81908: "O=C(OCCCN1CCN(c2ccncc2)CC1)c1cc2ccccc2o1"
Ans. 4.01

Qu. Param request: pIC50 | system UniProtKB P81908 | item "CC(C)N1CCN(CCCCOc2ccc3c(c2)NC(=O)CC3)CC1"
Ans. 4.78

====

Below, each entry is listed alongside its reported inhibition.
- system: Histamine H3 receptor (Homo sapiens)
- Sequence (Q9Y5N1 whole entry): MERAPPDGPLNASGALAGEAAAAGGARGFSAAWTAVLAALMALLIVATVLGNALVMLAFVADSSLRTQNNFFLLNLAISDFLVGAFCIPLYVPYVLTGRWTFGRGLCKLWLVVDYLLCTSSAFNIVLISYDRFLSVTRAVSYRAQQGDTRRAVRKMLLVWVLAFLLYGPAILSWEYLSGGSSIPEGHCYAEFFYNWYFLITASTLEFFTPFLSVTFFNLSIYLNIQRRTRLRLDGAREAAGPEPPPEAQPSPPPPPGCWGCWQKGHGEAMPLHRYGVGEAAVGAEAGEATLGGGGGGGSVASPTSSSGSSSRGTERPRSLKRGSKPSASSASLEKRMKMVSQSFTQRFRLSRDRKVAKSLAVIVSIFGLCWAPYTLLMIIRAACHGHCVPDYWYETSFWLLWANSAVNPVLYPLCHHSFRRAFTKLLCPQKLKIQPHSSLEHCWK
- protocol-summary: Inhibition of human H3 receptor at 10 uM incubated for 90 mins by scintillation counting method relative to control
Number plus unit, in that order.

Check out these entries, answers already filled in.
CN1CCN(CCCOC(=O)c2ccc3ccccc3c2)CC1: 96.3%
CN1CCN(CCCOc2ccc3ccccc3c2)CC1: 80.5%
O=C(OCCCN1CCN(c2ccccc2)CC1)c1ccc2ccccc2c1: 40.8%
CN1CCN(CCOc2cccc3ccccc23)CC1: 21.3%
CN1CCN(CCOC(=O)c2ccc3ccccc3c2)CC1: 78.2%

Qu. Find the measured inhibition of "CN1CCN(CCCOC(=O)c2cccc3ccccc23)CC1" and report it.
Ans. 83.8%

Qu. Give the measured inhibition for "CN1CCN(CCCOC(=O)c2cc3ccccc3o2)CC1"
Ans. 82.3%

Qu. Give me measured inhibition, please, for this compound: "c1ccc(N2CCN(CCOc3cccc4ccccc34)CC2)cc1"
Ans. 39.8%

Qu. Given the compound "CN1CCN(CCCOc2cccc3ccccc23)CC1" , write its reported inhibition.
Ans. 70%

Qu. Provide inhibition value for the following compound: "CN1CCN(CCOC(=O)c2cccc3ccccc23)CC1"
Ans. 69%

Qu. Dear colleague, please send me the reported inhibition for "O=C(OCCN1CCN(c2ccccc2)CC1)c1cccc2ccccc12" when you can.
Ans. 71.3%

Qu. Supply reported inhibition belonging to this compound: "CN1CCN(CCOc2ccc3ccccc3c2)CC1"
Ans. 39.3%

Qu. Indicate the recorded inhibition value for this compound: "O=C(OCCN1CCN(c2ccccc2)CC1)c1ccc2ccccc2c1"
Ans. 61.5%

====

- system: D(3) dopamine receptor (Homo sapiens)
- Sequence (P35462 whole entry): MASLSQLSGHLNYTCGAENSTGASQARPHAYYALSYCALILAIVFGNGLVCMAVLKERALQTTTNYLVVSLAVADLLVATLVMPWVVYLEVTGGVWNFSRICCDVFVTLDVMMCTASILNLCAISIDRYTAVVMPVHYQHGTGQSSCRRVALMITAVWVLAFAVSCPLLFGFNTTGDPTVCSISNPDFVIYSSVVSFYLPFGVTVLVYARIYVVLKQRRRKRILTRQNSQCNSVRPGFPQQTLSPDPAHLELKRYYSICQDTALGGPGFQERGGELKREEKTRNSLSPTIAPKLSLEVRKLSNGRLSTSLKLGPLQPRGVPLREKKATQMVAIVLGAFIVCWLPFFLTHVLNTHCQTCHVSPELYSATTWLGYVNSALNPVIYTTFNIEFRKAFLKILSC
- protocol-summary: Binding affinity to human D3 receptor expressed in CHO cells assessed as inhibition constant by scintillation counting method
- Type: cell-based
pKi: −log10 of the molar value.
observed-property: pKi

// below: answered compounds
O=C(NCCCN1CCN(c2ccncc2)CC1)c1cc2ccccc2o1: < 8.00
O=C(OCCCN1CCN(c2ccncc2)CC1)c1cc2ccccc2o1: < 8.00
CN1CCN(CCCOC(=O)c2cccc3ccccc23)CC1: < 8.00
CN1CCN(CCCOc2ccc3ccccc3c2)CC1: 9.15
CN1CCN(CCCOC(=O)c2ccc3ccccc3c2)CC1: 8.51

Qu. Supply pKi value. Item: "CN1CCN(CCCOC(=O)c2cc3ccccc3o2)CC1"
Ans. < 8.00

Qu. Return value of pKi for input "CN1CCN(CCOC(=O)c2ccc3ccccc3c2)CC1" , no commentary.
Ans. < 8.00

Qu. Using the record for "c1ccc(N2CCN(CCCOc3ccc4ccccc4c3)CC2)cc1" , state its measured pKi.
Ans. 9.47

====

- system: Acetylcholinesterase (Electrophorus electricus)
- Sequence (O42275 whole entry): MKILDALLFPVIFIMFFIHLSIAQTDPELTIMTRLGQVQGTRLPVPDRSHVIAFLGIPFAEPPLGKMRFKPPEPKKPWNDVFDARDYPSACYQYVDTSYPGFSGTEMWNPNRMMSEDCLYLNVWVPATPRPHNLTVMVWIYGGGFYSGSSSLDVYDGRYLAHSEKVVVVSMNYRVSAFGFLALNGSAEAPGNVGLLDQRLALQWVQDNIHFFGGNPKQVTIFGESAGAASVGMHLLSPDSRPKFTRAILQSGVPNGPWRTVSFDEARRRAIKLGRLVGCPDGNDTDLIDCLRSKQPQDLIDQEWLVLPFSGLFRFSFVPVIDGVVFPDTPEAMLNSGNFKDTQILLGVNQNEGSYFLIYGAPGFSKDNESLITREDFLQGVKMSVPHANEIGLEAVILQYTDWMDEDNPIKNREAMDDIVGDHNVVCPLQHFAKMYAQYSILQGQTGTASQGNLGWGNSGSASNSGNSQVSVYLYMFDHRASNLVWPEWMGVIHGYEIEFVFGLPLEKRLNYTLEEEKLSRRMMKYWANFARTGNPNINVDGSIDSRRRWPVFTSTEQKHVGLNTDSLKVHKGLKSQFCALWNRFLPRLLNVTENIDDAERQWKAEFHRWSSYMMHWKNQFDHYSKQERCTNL
observed-property: IC50 (µM)
Lab book: enter the figure in µM, no units written.

CC(C)N1CCN(CCCCOc2ccc3c(c2)NC(=O)CC3)CC1: 1.6
O=C(OCCCN1CCN(c2ccncc2)CC1)c1cc2ccccc2o1: 57.2
CN1CCN(CCCOC(=O)c2ccc3ccccc3c2)CC1: 97.8

Continue with the next molecule.
Qu. Please look at "c1ccc2c(OCCN3CCN(c4ccncc4)CC3)cccc2c1" and tell me its recorded IC50 on Acetylcholinesterase (Electrophorus electricus).
Ans. 53.7

====

- system: Cholinesterase (Equus caballus) (UniProt P81908)
- Sequence (P81908 whole entry): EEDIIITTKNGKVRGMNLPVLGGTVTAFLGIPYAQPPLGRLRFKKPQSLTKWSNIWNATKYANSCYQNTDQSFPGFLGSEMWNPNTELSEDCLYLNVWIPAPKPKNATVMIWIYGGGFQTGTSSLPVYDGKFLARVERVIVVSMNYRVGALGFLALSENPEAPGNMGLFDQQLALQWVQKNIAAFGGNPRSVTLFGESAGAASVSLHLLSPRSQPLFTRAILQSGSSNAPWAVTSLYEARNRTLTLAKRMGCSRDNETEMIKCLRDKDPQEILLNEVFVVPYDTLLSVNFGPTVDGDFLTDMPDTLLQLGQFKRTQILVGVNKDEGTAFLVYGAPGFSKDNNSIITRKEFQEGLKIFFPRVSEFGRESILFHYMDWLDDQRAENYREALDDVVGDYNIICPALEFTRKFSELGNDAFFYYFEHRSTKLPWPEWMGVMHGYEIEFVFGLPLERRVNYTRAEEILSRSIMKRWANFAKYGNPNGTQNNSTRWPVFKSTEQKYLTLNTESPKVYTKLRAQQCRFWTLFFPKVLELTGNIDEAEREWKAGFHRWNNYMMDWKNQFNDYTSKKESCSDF
- protocol-summary: Inhibition of equine BChE at 100 uM using acetylthiocholine chloride as substrate preincubated for 15 mins followed by substrate addition and measured after 30 mins by DTNB reagent based Ellman's method relative to control
- condition-info: time 45.0 min
Threshold rule: inhibition greater than or equal to 60% is rule met; below that, rule not met.

CN1CCN(CCOC(=O)c2cccc3ccccc23)CC1: rule not met

Qu. // inclusive: inhibition at least 60%? input: "c1ccc(N2CCN(CCCOc3cccc4ccccc34)CC2)cc1"
Ans. rule not met

Qu. Threshold query (inhibition >= 60%) on "CN1CCN(CCOc2cccc3ccccc23)CC1"
Ans. rule met

Qu. Item "O=C(OCCN1CCN(c2ccccc2)CC1)c1cccc2ccccc12" with inhibition of 60% or above?
Ans. rule not met

====

Dear all, this message contains IC50 results, target or system Cholinesterase (Equus caballus, UniProt P81908).
# value in µM; strip the unit string

Qu. Fill in IC50 for "c1ccc2c(OCCN3CCN(c4ccncc4)CC3)cccc2c1" tested with Cholinesterase (Equus caballus, UniProt P81908).
Sequence (P81908 whole entry): as the sequence (P81908 whole entry) above
Ans. 40.7

Qu. Report its IC50 with Cholinesterase (Equus caballus, UniProt P81908) as the test system: "c1ccc(N2CCN(CCCOc3ccc4ccccc4c3)CC2)cc1"
Ans. 53.7

Qu. GET IC50 | system: Cholinesterase (Equus caballus, UniProt P81908) | item: "CN1CCN(CCOC(=O)c2ccc3ccccc3c2)CC1"
Ans. 57.5

====

# inhibition per entry
- system: Cholinesterase (Equus caballus)
- protocol-summary: Inhibition of equine BChE at 100 uM using acetylthiocholine chloride as substrate preincubated for 15 mins followed by substrate addition and measured after 30 mins by DTNB reagent based Ellman's method relative to control
- condition-info: time 45.0 min

In the examples that follow, each entry is paired with its recorded inhibition.
CN1CCN(CCOC(=O)c2ccc3ccccc3c2)CC1: 74.8%
O=C(OCCCN1CCN(c2ccccc2)CC1)c1cc2ccccc2o1: 46.8%
O=C(OCCN1CCN(c2ccccc2)CC1)c1ccc2ccccc2c1: 36.5%
O=C(OCCCN1CCN(c2ccccc2)CC1)c1cccc2ccccc12: < 10%
c1ccc(N2CCN(CCCOc3ccc4ccccc4c3)CC2)cc1: 65.7%

Qu. State inhibition on Cholinesterase (Equus caballus). Entry: "O=C(OCCCN1CCN(c2ccncc2)CC1)c1cc2ccccc2o1"
Ans. 49.9%

Qu. Report the value of inhibition obtained on Cholinesterase (Equus caballus) for "CN1CCN(CCCOc2ccc3ccccc3c2)CC1" .
Ans. 70%

Qu. Look up Cholinesterase (Equus caballus) data: inhibition of "CN1CCN(CCCOc2cccc3ccccc23)CC1" , then report it.
Ans. 60.2%

Qu. Look up and report inhibition, with Cholinesterase (Equus caballus) as system, for CN(C)C(=O)Oc1cccc([N+](C)(C)C)c1 [NEOSTIGMINE]
Ans. > 95%

Qu. Report value only: inhibition, Cholinesterase (Equus caballus), "c1ccc2c(OCCN3CCN(c4ccncc4)CC3)cccc2c1"
Ans. 65.4%

Qu. Give the observed inhibition of "c1ccc(N2CCN(CCOc3cccc4ccccc34)CC2)cc1" for Cholinesterase (Equus caballus).
Ans. 26%

Qu. State recorded inhibition with Cholinesterase (Equus caballus), entry "c1ccc(N2CCN(CCOc3ccc4ccccc4c3)CC2)cc1" , no comment.
Ans. 17.5%

====

// IC50 collected for Cholinesterase (Equus caballus)
Answer format: numeric, µM implied, no suffix.

Reference set, count: 2
CN1CCN(CCCOc2ccc3ccccc3c2)CC1: 26.3
CN1CCN(CCCOc2cccc3ccccc23)CC1: 78.5

Consider the additional compound presented here.
Qu. Under Cholinesterase (Equus caballus): report IC50 of "CN1CCN(CCOc2cccc3ccccc23)CC1" .
Ans. 58.9
